System: SF-539 CNS
methodDescription: NCI-60 one-dose screen, 48 h
runParameters: 10 µM unless noted
Compounds without any hit were thinned out: in the full panel of roughly 83,000, 20% have a hit. Active and inactive are the calls of the source. How the source made its calls: active means growth percent below 10; inactive means the rest.
Field 'call' accepts active, inactive

Example entries begin here.
compound | groupLabel
C#CCOc1ccc2ncnc(Nc3cccc(CNC(=O)C=C)c3)c2c1 | inactive
O=C(/C=C/c1cccc(Cl)c1)c1ccc(O)c(CN2CCN(c3cc4c(cc3F)c(=O)c(C(=O)O)cn4C3CC3)CC2)c1 | inactive
COc1cc(CNc2oc(-c3ccccc3)c(-c3ccccc3)c2C#N)cc(CN2CCN(C)CC2)c1O | inactive
Cc1nn(-c2cc(=O)[nH]c3ccccc23)c(N)c1C#N | inactive
COc1cccc(-c2nc3sccn3c2-c2ccnc(NCCNS(=O)(=O)c3ccc(F)cc3)c2)c1 | inactive

Query block: Check the results log: what was the call for Nc1n[nH]c2cc(F)c([C@@H]3Nc4ccc5[nH]ncc5c4[C@H]4C5CCC(C5)[C@@H]34)cc12 (some centres undefined) ?
Result block: active

Query block: Check the results log: what was the call for `O=c1cc(CSc2nnc(-c3ccc(F)cc3)o2)c2ccc3ccccc3c2o1` ?
Result block: inactive

Query block: Check the results log: what was the call for `OCCNc1nccc(N2CCN(c3ccnc4cc(Cl)ccc34)CC2)n1` ?
Result block: inactive

Query block: Check the results log: what was the call for `COc1ccc(S(=O)(=O)N2CCCCC2)cc1NC(=O)c1[nH]c(C)c2c1CCCCC2=O` ?
Result block: inactive

---

The entries below are paired with their reported growth.
Tested on: SNB-19 CNS
methodDescription: NCI-60 one-dose screen, 48 h (100 = growth as untreated, 0 = no growth, -100 = all killed)
runParameters: 10 µM unless noted
The panel holds about 83,000 compounds, 20% with a hit somewhere; the sample as a whole holds those more often.
Number in %, nothing else.

compound | growth [%]
O=C(Oc1cccnc1)c1ccsc1Nc1ccnc(C(F)(F)F)c1 | 97.7

Query block: Please give the measured growth for this compound: CC1=C(O)C(=O)C(C(C#N)(C#N)C(C#N)C#N)C1 (stereo not given)
Result block: 108

---

The entries below are paired with their reported growth.
Tested on: MDA-MB-231 breast
methodDescription: NCI-60 one-dose screen, 48 h (100 = growth as untreated, 0 = no growth, -100 = all killed)
runParameters: 10 µM unless noted
This is part of a sample that, as a whole, favours compounds with a hit. Of some 83,000 tested, about 20% had one in any assay. The source made the active and inactive calls. Rule for the calls: active = growth percent below 10; inactive = the rest.

Query block: Please give the measured growth for this compound: `NNCCc1ccc(NC(=O)CCCc2ccc(/C=C/C(=O)NO)cc2)cc1`
Result block: 42.3% (inactive)

Query block: Please give the measured growth for this compound: `Cc1cn2c(/C=C3/C(=O)Nc4c3ccc3ccccc43)c(C(F)(F)F)nc2s1`
Result block: 38.1% (inactive)

Query block: Please give the measured growth for this compound: `O=c1cc(CSc2nnc(-c3ccc(F)cc3)o2)c2ccc3ccccc3c2o1`
Result block: 87.2% (inactive)

Query block: Please give the measured growth for this compound: `O=C(O)c1ccc(NC(=O)c2ccc(-c3cccc([N+](=O)[O-])c3)o2)cc1`
Result block: 96.1% (inactive)

Query block: Please give the measured growth for this compound: `O=C1c2cc3c(cc2-c2c1c1ccc(F)cc1c(=O)n2C[C@H](O)[C@@H](O)[C@H](O)CO)OCO3`
Result block: 11.1% (inactive)
